Biological target: PPARα (Homo sapiens)
Construct: PPARα (aa 167 to 469); expressed in transfected cells; host or cells: BHK21 (ATCC CCL10)
Sequence (Q07869 167-468 limits assumed): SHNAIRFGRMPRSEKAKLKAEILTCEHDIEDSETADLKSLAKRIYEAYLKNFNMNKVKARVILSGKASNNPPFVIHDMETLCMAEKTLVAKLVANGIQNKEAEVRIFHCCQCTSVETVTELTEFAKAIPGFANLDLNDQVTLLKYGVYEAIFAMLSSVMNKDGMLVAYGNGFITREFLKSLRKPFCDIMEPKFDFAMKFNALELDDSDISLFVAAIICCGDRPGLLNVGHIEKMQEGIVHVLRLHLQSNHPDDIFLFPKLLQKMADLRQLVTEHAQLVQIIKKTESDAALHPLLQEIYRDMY
Assay: Luciferase transcriptional reporter gene assay, pFA-PPARα-LBD in BHK21 cells
Format: cell-based
PARAMETER: EC50 (µM)

CCOC(Cc1cccc2c1ccn2Cc1nc(-c2ccc(C(C)C)cc2)oc1C)C(=O)O (racemic) [Example 2]; 0.2

I: CCOC(Cc1cccc2c1ccn2CCCc1nc(-c2ccccc2)oc1C)C(=O)O (racemic) [Example 3]
II: CCOC(Cc1cccc2c1ccn2Cc1nc(-c2ccc(C(F)(F)F)cc2)oc1C)C(=O)O (racemic) [Example 10]
III: CCOC(Cc1cccc2c1ccn2Cc1nc(-c2cc(OC)cc(OC)c2)oc1C)C(=O)O (racemic) [Example 1]
Order these by EC50, descending, and give the full ranking. Arrange the labels as the request states and list them.
I, II, III

All values here come from patent US7098228B2.
